System: Escherichia coli TOP10
Test: shrunken log2 fold change of peptide-encoding DNA abundance (4.5 h post-induction vs induction); higher = less antimicrobial activity (less host growth inhibition)
Conditions: time post-induction: 4.5 h; library: site-saturation at positions 5, 18, 19, 20
A collection of sequences and their measured shrunken log2 fold change
Just the number, please, no unit after it.

RRIRQRPPRLPRPRPRPMMGPRP = -0.107

Task: State the recorded shrunken log2 fold change for this entry: RRIRIRPPRLPRPRPRPELHPRP
Output: -0.2

Task: State the recorded shrunken log2 fold change for this entry: RRIRHRPPRLPRPRPRPSIQPRP
Output: -0.344

* * *

System: Escherichia coli TOP10;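 note: peptides expressed intracellularly from a pBAD plasmid library in pooled LB shake-flask culture, induced with 0.3% L-arabinose, DNA abundance read by NGS, three biological replicates, DESeq2 with apeglm shrinkage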
Test: shrunken log2 fold change of peptide-encoding DNA abundance (4.5 h post-induction vs induction); higher = less antimicrobial activity (less host growth inhibition)
Conditions: time post-induction: 4.5 h; library: site-saturation at positions 5, 18, 19, 20
Label t when shrunken log2 fold change >= 0.2; otherwise f.

Please review the following examples before continuing.
RRIRWRPPRLPRPRPRPEQCPRP = f
RRIRERPPRLPRPRPRPEMDPRP = f
RRIRPRPPRLPRPRPRPDAPPRP = t
RRIRYRPPRLPRPRPRPKHWPRP = t

Next sequence, please.
Task: Could you tell me if the measured shrunken log2 fold change of RRIRLRPPRLPRPRPRPWMNPRP reaches 0.2 or more?
Output: f
